test system: SF-268 CNS; experiment: NCI tumour cell line growth inhibition, 48 h
Field: TGI. Provide a value for each of the compounds that follow.

- compound: "O=C1CC2(CCC(O)(c3cccc4ccccc34)C(C(=O)c3cccc4ccccc34)C2)C(=O)c2ccccc2N1 (stereo unspecified)"
  measured-parameter: "TGI"
  result: "91.6 µM"
- compound: "COc1ccc(CN2C(=O)C(Cl)=C(Nc3cccc(O)c3)C2=O)cc1"
  measured-parameter: "TGI"
  result: "45.8 µM"
- compound: "Cc1nc2ccccc2c(/C=C/c2ccc(Cl)cc2)c1C(=O)/C=C/c1ccc(F)cc1"
  measured-parameter: "TGI"
  result: "3.04 µM"
- compound: "Cc1ccc(C)c(COc2cc(NC(=O)c3ccc4c(c3)OCO4)ccc2N(C)S(C)(=O)=O)c1"
  measured-parameter: "TGI"
  result: "> 100 µM"
- compound: "Cc1c2cnccc2c(C)c2c1c1ccccc1n2CC1CO1 (stereo unspecified)"
  measured-parameter: "TGI"
  result: "2.09 µM"

Record TGI for all entries; do not skip any.
1. FC(F)(F)c1cccc2ns[s+]c12
2. COC1/C=C/C(C)C(OC)CC(O)/C=C/C(C)C(C(C)C(OC)C(C)CCC(=O)C(C)C(C/C=C/N(C)C=O)OC)OC(=O)/C=C/C=C(\C)CC(OC)CC2=CC(=O)O[C@@H](C(C)C(OC)C1)[C@H]2O (stereo partly specified)
3. Cc1n[nH]c(=O)n1-c1cccnc1

Resp:
1: > 100 µM; 2: > 5.72 µM; 3: > 100 µM

Record TGI for all entries; do not skip any.
1. CC(C)=NNc1ncnc2c1ncn2C1OC(CO)C(O)C1O (stereo unspecified)
2. COCOc1cc(OC)ccc1C/C=N/O
3. CCCCn1c(C)c(C(=O)CC)c(C(=O)NCCN2CCN(c3ccccc3Cl)CC2)c1C
4. COc1cccc2cc(N(C)c3ncnc4ccccc34)ccc12
5. Clc1ccc(C2ON=C(c3ccccc3)N2C23CC4CC(CC(C4)C2)C3)c(Cl)c1 (stereo unspecified)
6. O=c1oc2ccc(Cl)cc2cc1C1=CSC2=NCCN12

Resp:
1: > 100 µM; 2: > 100 µM; 3: 37.7 µM; 4: 14.1 µM; 5: > 10 µM; 6: 33.4 µM

====

system: HCT-116 colon; test: NCI tumour cell line growth inhibition, 48 h
Field: TGI. Provide a value for each of the compounds that follow.

- compound: "COc1ccc2[nH]c(C(O)(Cc3cccnc3)Cc3cccnc3)cc2c1"
  TGI: "> 100 µM"

Record TGI for all entries; do not skip any.
1. Cn1c(/C=C/CO)c(CO)c2c1C(=O)C=C(N1CC1)C2=O
2. FC(F)(F)CNc1nccc(-c2cnn3ncccc23)n1
3. COc1ccccc1-c1cc(=O)c2ccccc2n1C1CC1
4. C[C@H]1CC[C@@H]2[C@@H](C)C[C@H]3[C@@H]4C(C)(C)OC(=O)[C@]4(C)C(=O)[C@@]23C1=O
5. CCC(CN(C)C)C(=O)c1ccco1 (stereo unspecified)

Resp:
["1.02 µM", "> 25 µM", "10.4 µM", "> 100 µM", "> 100 µM"]

====

test system: HCT-15 colon; assay: NCI tumour cell line growth inhibition, 48 h
Field: TGI. Provide a value for each of the molecules that follow.

Previously resolved entries follow.
- molecule: "COC(=O)C(C/C=C(\\C)c1ccccc1)C(C)=O (centres undefined)"
  TGI: "> 100 µM"
- molecule: "COc1cccc2c1C(=O)c1c(O)c3c(c(O)c1C2=O)CC(O)(C(=O)CO)CC3OC1CC(N)C(I)C(C)O1 (centres undefined)"
  TGI: "14.6 µM"
- molecule: "COc1ccc(OC)c(NC(=O)c2c(Cl)c(Cl)c(Cl)c(Cl)c2-c2nc3ccccc3[nH]2)c1"
  TGI: "> 100 µM"

Shift focus to the following entry.
Req: For the molecule `COC(=O)[C@]12CC[C@H]3CN(C(=O)OCc4ccccc4)[C@H]([C@H]31)[C@H](C(=O)OCC[Si](C)(C)C)N2S(=O)(=O)c1ccc(C)cc1` , give its measured TGI value.
Resp: > 100 µM

====

Field: TGI. Provide a value for each of the molecules that follow.
tested on: IGROV1 ovarian; experiment: NCI tumour cell line growth inhibition, 48 h
*1 amine or outer side, *2 acyl side, *3 side chain or, on linkers, in order; H or OH if unused. Where a SMILES comes first, the peptide text is derived from it. Bridges are numbered along the chain shown (N, C = ends). [ ]: non-standard residue; d: D form. The star is where a group is joined. Phe(3,5-F2) = N[C@@H](Cc1cc(F)cc(F)c1)C(=O)O; Pro(4R-Me) = C[C@H]1CN[C@H](C(=O)O)C1; aThr = C[C@H](O)[C@H](N)C(=O)O; Pip = O=C(O)[C@@H]1CCCCN1; X10 = Fc1cc(C2CC2)ccc1N*; Abu = CC[C@H](N)C(=O)O; CO = O=C([*:1])[*:2]

Previously resolved entries follow.
- molecule: "CSc1nc(SC)c2cnn(CC3CO3)c2n1 (stereo not drawn)"
  TGI: "38.1 µM"
- molecule: "CC(C)(C)OC(=O)NCC(c1c[nH]c2ccc(Br)cc12)c1c[nH]c2ccc(Br)cc12"
  TGI: "17.3 µM"
- molecule: "CCOCCOc1ccc(OCCOCC)cc1"
  TGI: "38 µM"
- molecule: "O=C1Nc2ccccc2C1(c1c[nH]c2ccccc12)c1c[nH]c2ccccc12"
  TGI: "5.09 µM"
- molecule: "CCC1([N+](=O)[O-])CC2C=CC1C2 (stereo not drawn)"
  TGI: "> 100 µM"

Record TGI for all entries; do not skip any.
1. Fc1ccc(-c2nnc3sc(-c4cc(Cl)cc(Cl)c4)nn23)cc1Cl
2. COc1ccc(Cc2nc3cc([N+](=O)[O-])ccc3n2C[C@@H]2CCCN3CCCCC23)cc1 (stereo partly drawn)
3. N.N.NCCCCCCN.O=C([O-])CCl.O=C([O-])CCl.O=C([O-])CCl.O=C([O-])CCl.[Pt+4].[Pt+4]
4. COc1ccc(NC(=S)N/N=C/c2c(C)n(C)n(-c3ccccc3)c2=O)cc1

Resp:
1. > 100 µM
2. 48.1 µM
3. > 50 µM
4. > 100 µM

Record TGI for all entries; do not skip any.
1. CC(C)OP(=O)(c1ccccc1)c1ccc2c(c1)OCCOCCOCCOCCO2 (stereo not drawn)
2. COCCCCCC(=O)CP(=O)(OC)OC
3. CCCCn1c(C)c(C(=O)CC)c(C(=O)NCCN2CCN(c3ccccc3Cl)CC2)c1C
4. O=c1[nH]c2ccc(N=Cc3c(O)[nH]c4ccccc34)cc2[nH]1
5. O=C1OC(c2ccccc2)=N/C1=C\c1ccc(F)cc1
6. COc1ccc(C(O)c2cc3c(N)c(C(=O)Nc4cccc(OC)c4)sc3nc2C)cc1 (stereo not drawn)
7. Nc1ccn(C2OC(COP(=O)(O)OCC3OC(n4cc(F)c(=O)[nH]c4=O)CC3O)C(O)C2O)c(=O)n1 (stereo not drawn)
8. CC[C@@H]1NC(=O)[C@@H]2CCCCN2C(=O)[C@@H]2CCCN2C(=O)[C@@H](NC(=O)[C@H](Cc2cc(F)cc(F)c2)NC(=O)Nc2ccc(C3CC3)cc2F)[C@H](C)OC(=O)[C@@H]2C[C@@H](C)CN2C1=O ({X10-CO}-[Phe(3,5-F2)][aThr]P[Pip][Abu][Pro(4R-Me)]; ester 2-C)

Resp:
> 100 µM
> 100 µM
30.9 µM
> 25 µM
> 100 µM
3.46 µM
> 100 µM
> 36.7 µM

Req: For the molecule CC[C@]1(Cc2ccc(OC)c(OC)c2)[C@@H]2C[C@@H](C(=O)OC)ON2O[C@H](OC2CCCC2(c2ccccc2)c2ccccc2)[C@@H]1OC(C)=O (stereo partly drawn) , give its measured TGI value.
Resp: > 100 µM

====

system: HL-60(TB) leukemia; assay: NCI tumour cell line growth inhibition, 48 h; in the data active = GI50 below about 0.43 µM; inactive = the rest
Select the matching outcome among active, inactive

- compound: "CCC(=C/[C@H](C)C/C=C/C(C)=C/[C@@H](C)C(=O)[C@@H](C)[C@H](O)[C@@H](C)CC)/C=C/[C@@H]1OC(=O)C=C[C@@H]1C"
  discrete-label: "active"

Req: Hi, do you know how `Cn1cc(C2=C(c3c4n(c5ccccc35)CCN(C(N)=S)C4)C(=O)NC2=O)c2ccccc21` came out in this test?
Resp: inactive

Req: Hi, do you know how `FC(F)(F)CNc1nccc(-c2cnn3ncccc23)n1` came out in this test?
Resp: inactive

Req: Hi, do you know how COc1cc(OC)cc(C2C(C#N)=C(N)Oc3c2ccc2ccc(O)cc32)c1 (stereo not drawn) came out in this test?
Resp: active

Req: Hi, do you know how `[N-]=[N+]=NCCCn1c2c(c3ccccc3c1=O)C(=O)c1cc(Br)ccc1-2` came out in this test?
Resp: inactive

Req: Hi, do you know how `O=C1Nc2ccccc2C1(c1c[nH]c2ccccc12)c1c[nH]c2ccccc12` came out in this test?
Resp: inactive

Req: Hi, do you know how `Oc1c(Cl)cc(Cl)c2ccc(Cn3cc(-c4cc(F)cc(F)c4)nn3)nc12` came out in this test?
Resp: inactive

Req: Hi, do you know how CC(=O)OC1CCC(OC(C)=O)[C@H]2[C@@H]1[C@@H]1S[C@H]2c2ccccc21 (stereo partly drawn) came out in this test?
Resp: inactive
